Numbers sourced from ChEMBL document CHEMBL4368864.

Experimental system: Purine nucleoside phosphorylase (Homo sapiens)
Sequence (P00491 whole entry): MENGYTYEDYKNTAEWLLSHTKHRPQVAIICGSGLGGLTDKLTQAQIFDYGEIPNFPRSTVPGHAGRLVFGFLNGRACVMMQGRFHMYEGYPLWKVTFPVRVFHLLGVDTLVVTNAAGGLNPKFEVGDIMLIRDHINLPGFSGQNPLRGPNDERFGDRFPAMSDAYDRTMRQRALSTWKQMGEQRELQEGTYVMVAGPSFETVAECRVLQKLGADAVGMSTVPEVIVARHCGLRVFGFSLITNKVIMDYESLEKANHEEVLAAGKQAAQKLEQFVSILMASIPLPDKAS
Protocol text: Inhibition of human PNP using inosine as substrate by xanthine oxidase coupled assay
Measured metric: Ki (nM)
The response must be a number in nM with no trailing unit.

Give Purine nucleoside phosphorylase (Homo sapiens) Ki for `Nc1ncnc2c([C@@H]3N[C@H](CO)[C@@H](O)[C@H]3O)c[nH]c12`
33

====

Protocol text: Inhibition of Crithidia fasciculata nucleoside hydrolase
Measured metric: pKi
# pKi is unitless: minus log10 of the molar concentration; print number only

Please look up its pKi: `O=c1[nH]cnc2c1ncn2[C@@H]1O[C@H](CO)[C@@H](O)[C@H]1O`
3.42

Can you check `OC[C@H]1N[C@@H](c2ccccc2)[C@H](O)[C@@H]1O` next?
6.77

Can you check `OC[C@H]1NC[C@H](O)[C@@H]1O` next?
5.00

Can you check `OC[C@H]1N[C@@H](c2cnc[nH]2)[C@H](O)[C@@H]1O` next?
5.60

====

Protocol text: Oral bioavailability in mouse
Format: ADME, organism-based
Experimental setup: in vivo
Measured metric: bioavailability (%)
The response must be a number in % with no trailing unit.

Please look up its bioavailability: `O=c1[nH]cnc2c([C@@H]3N[C@H](CO)[C@@H](O)[C@H]3O)c[nH]c12`
63
